Where these numbers come from: paper PMC7320011

tested on: HeLa MCTS; assay: (Photo-)cytotoxicity on 3D MCTS (ATP concentration); type: cell-based, human; conditions: Homo sapiens, dark, 1-3 as chloride salts, read-out: IC50 dark
pIC50: −log10 of the molar value.
PARAMETER: pIC50

1. C1=Cc2nc1c(-c1ccccc1)c1nc(c(-c3ccccc3)c3ccc([nH]3)c(-c3ccccc3)c3ccc([nH]3)c2-c2ccccc2)C=C1 [H2TPP, tetraphenylporphyrin, reference compound] ... < 4.00

----------
system: human glioblastoma astrocytoma (U373) cells; experiment: (Photo-)cytotoxicity on 2D cell monolayers, U373; conditions: read-out: IC50 dark; U373, dark; 1-3 as chloride salts
pIC50: −log10 of the molar value.
pIC50 reference
PARAMETER: pIC50

1) N.N.[Cl][Pt][Cl] [cisplatin, reference compound] ... 4.75
2) COc1ccc(/C=C/c2ccnc(-c3cc(/C=C/c4ccc(OC)cc4)ccn3)c2)cc1.COc1ccc(/C=C/c2ccnc(-c3cc(/C=C/c4ccc(OC)cc4)ccn3)c2)cc1.F[P-](F)(F)(F)(F)F.F[P-](F)(F)(F)(F)F.[Ru+2].c1ccc(-c2ccccn2)nc1 [compound 5] ... < 4.00
3) CN(C)c1ccc(/C=C/c2ccnc(-c3cc(/C=C/c4ccc(N(C)C)cc4)ccn3)c2)cc1.F[P-](F)(F)(F)(F)F.F[P-](F)(F)(F)(F)F.[Ru+2].c1ccc(-c2ccccn2)nc1.c1ccc(-c2ccccn2)nc1 [compound 6] ... < 4.00
4) COc1ccc(/C=C/c2ccnc(-c3cc(/C=C/c4ccc(OC)cc4)ccn3)c2)cc1.COc1ccc(/C=C/c2ccnc(-c3cc(/C=C/c4ccc(OC)cc4)ccn3)c2)cc1.COc1ccc(/C=C/c2ccnc(-c3cc(/C=C/c4ccc(OC)cc4)ccn3)c2)cc1.F[P-](F)(F)(F)(F)F.F[P-](F)(F)(F)(F)F.[Ru+2] [compound 3] ... < 4.00
5) COc1ccc(/C=C/c2ccnc(-c3cc(/C=C/c4ccc(OC)cc4)ccn3)c2)cc1.F[P-](F)(F)(F)(F)F.F[P-](F)(F)(F)(F)F.[Ru+2].c1ccc(-c2ccccn2)nc1.c1ccc(-c2ccccn2)nc1 [compound 7] ... < 4.00

----------
test system: human glioblastoma astrocytoma (U373) cells; test: (Photo-)cytotoxicity on 2D cell monolayers, U373; details: read-out: IC50 dark; U373, dark; 1-3 as chloride salts;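 note: Resazurin-to-resorufin fluorescence viability readout, 8 h compound exposure then medium change, light dose 3.1 J cm^−2 at 480 nm or 9.5 J cm^−2 at 540 nm, analysed 40 h later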
pIC50: −log10 of the molar value.
pIC50 reference
PARAMETER: pIC50

1. C(=C\c1ccnc(-c2cc(/C=C/c3ccccc3)ccn2)c1)/c1ccccc1.C(=C\c1ccnc(-c2cc(/C=C/c3ccccc3)ccn2)c1)/c1ccccc1.C(=C\c1ccnc(-c2cc(/C=C/c3ccccc3)ccn2)c1)/c1ccccc1.F[P-](F)(F)(F)(F)F.F[P-](F)(F)(F)(F)F.[Ru+2] ... < 4.00
2. CN(C)c1ccc(/C=C/c2ccnc(-c3cc(/C=C/c4ccc(N(C)C)cc4)ccn3)c2)cc1.CN(C)c1ccc(/C=C/c2ccnc(-c3cc(/C=C/c4ccc(N(C)C)cc4)ccn3)c2)cc1.CN(C)c1ccc(/C=C/c2ccnc(-c3cc(/C=C/c4ccc(N(C)C)cc4)ccn3)c2)cc1.F[P-](F)(F)(F)(F)F.F[P-](F)(F)(F)(F)F.[Ru+2] ... < 4.00
3. CN(C)c1ccc(/C=C/c2ccnc(-c3cc(/C=C/c4ccc(N(C)C)cc4)ccn3)c2)cc1.CN(C)c1ccc(/C=C/c2ccnc(-c3cc(/C=C/c4ccc(N(C)C)cc4)ccn3)c2)cc1.F[P-](F)(F)(F)(F)F.F[P-](F)(F)(F)(F)F.[Ru+2].c1ccc(-c2ccccn2)nc1 ... < 4.00
